ASSAY OVERVIEW: protein stability index of a GFP-peptide fusion (yeast GPS) (PSI 1-4); higher = more stable; sorted into four equal gates, so the index is relative within each strain
EXPERIMENTAL PARAMETERS: doa10∆
Dear colleague, classification is by protein stability index, with ranges listed here: lower range: < 2; middle range: ≥ 2 and < 3; upper range: ≥ 3

Worked cases, answers included:
Just checking, what class would you give KMVGLRGFNNQIMQLKK [SNF2] here?
upper range

Just checking, what class would you give TLFSSIEPQVINYLALN [ECM29] here?
middle range

Just checking, what class would you give GGQHHHRINMDKYHPGY [RPL28] here?
upper range

---
Just checking, what class would you give NYSSESYRNAFTNVLTK [YJL039C/NUP192] here?
middle range

Just checking, what class would you give EVVQTGAKNIEITVVKP [PRE6] here?
upper range

Just checking, what class would you give TFSVYHESTSRTDQYTI [YMR129W/POM152] here?
middle range

Just checking, what class would you give KFFRVKYENKISTVIEV [SMC3] here?
lower range

Just checking, what class would you give AGRGFTLAEVKAAGLTA [RPL13A] here?
middle range

Just checking, what class would you give VISSGPLAAGNFVSEKG [RPC53] here?
middle range

Just checking, what class would you give VPSHVPQVLINRDPVKH [SIR2] here?
middle range

Just checking, what class would you give AKCNSLLQLKYFSNKTS [POP5] here?
lower range

Just checking, what class would you give TARRNVSGDAAALFRLH [SWI3] here?
middle range
